Reference for the values: patent US11667606B2

molecular target: TRβ (Homo sapiens); assay: Thyroid-hormone reporter-gene assay, TRβ (Gal4 DBD hybrid, luciferase, HEK293); conditions: reporter cells derived from HEK293, 24 hr incubation, luciferase readout
pEC50: −log10 of the molar value.
Recorded measurements of pEC50, one per entry

| compound | pEC50 |
| --- | --- |
| Cc1cc(OCC(=O)O)cc(Cl)c1Cc1ccc(O)c(-c2cccc(OC(F)F)c2)c1 [Compound 62] | 6.00 to 7.00 |
| O=C(O)COc1cc(Cl)c(Cc2ccc(O)c(-c3cc(F)cc(C(F)(F)F)c3)c2)c(Cl)c1 [Compound 50] | 6.00 to 7.00 |
| Cc1ccoc1-c1cc(Cc2c(Cl)cc(OCC(=O)O)cc2Cl)ccc1O [Compound 44] | < 6.00 |

Recall the recorded pEC50 for O=C(O)COc1cc(Cl)c(Cc2ccc(O)c(-c3ccco3)c2)c(Cl)c1 [Compound 38] with TRβ (Homo sapiens) and state it.
< 6.00

Recall the recorded pEC50 for Cc1cc(OCC(=O)O)cc(C)c1Cc1ccc(O)c(Cc2ccc(F)cc2)c1 [Compound 133] with TRβ (Homo sapiens) and state it.
7.00 to 8.00

Recall the recorded pEC50 for O=C(O)COc1cc(Cl)c(Cc2ccc(O)c(-c3cccc(CO)c3)c2)c(Cl)c1 [Compound 8] with TRβ (Homo sapiens) and state it.
< 6.00

Recall the recorded pEC50 for O=C(O)COc1cc(Cl)c(Cc2ccc(O)c(Cc3ccccc3F)c2)c(Cl)c1 [Compound 84] with TRβ (Homo sapiens) and state it.
< 6.00

Recall the recorded pEC50 for Cc1ccc(Cc2cc(Cc3c(Cl)cc(OCC(=O)O)cc3Cl)ccc2O)cc1 [Compound 92] with TRβ (Homo sapiens) and state it.
< 6.00

###

Recorded measurements of EC50, one per entry
Target: TRβ (Homo sapiens, UniProt P10828)
Sequence (P10828 217-461 limits assumed): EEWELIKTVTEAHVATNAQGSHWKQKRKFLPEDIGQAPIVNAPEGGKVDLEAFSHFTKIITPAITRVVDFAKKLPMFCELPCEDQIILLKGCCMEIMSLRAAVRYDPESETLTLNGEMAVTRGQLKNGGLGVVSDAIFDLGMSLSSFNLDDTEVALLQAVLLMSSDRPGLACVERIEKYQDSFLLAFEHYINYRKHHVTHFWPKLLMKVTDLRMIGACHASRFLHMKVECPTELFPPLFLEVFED
Assay: Thyroid-hormone reporter-gene assay, TRβ (Gal4 DBD hybrid, luciferase, HEK293)
Details: reporter cells derived from HEK293, 24 hr incubation, luciferase readout

Some solved entries appear below for comparison.
| compoundString | EC50 |
| --- | --- |
| O=C(O)COc1cc(Cl)c(Cc2ccc(O)c(-c3ccc(F)c(C(F)(F)F)c3)c2)c(Cl)c1 | > 1 µM |
| C=Cc1cccc(-c2cc(Cc3c(Cl)cc(OCC(=O)O)cc3Cl)ccc2O)c1 | 0.1 to 1 µM |

Next compound, EC50 to be filled in.
Recall the recorded EC50 for `O=C(O)COc1cc(Cl)c(Cc2ccc(O)c(-c3cccc(CC(F)(F)F)c3)c2)c(Cl)c1` with TRβ (Homo sapiens, UniProt P10828) and state it.
0.1 to 1 µM

###

biological target: TRβ (Homo sapiens, UniProt P10828); experiment: Thyroid-hormone reporter-gene assay, TRβ (Gal4 DBD hybrid, luciferase, HEK293); details: reporter cells derived from HEK293, 24 hr incubation, luciferase readout
pEC50: −log10 of the molar value.
measurementType: pEC50

Some solved entries appear below for comparison.
| compoundString | pEC50 |
| --- | --- |
| O=C(O)COc1cc(Cl)c(Cc2ccc(O)c(Cc3ccc(Cl)cc3)c2)c(Cl)c1 | < 6.00 |
| CCc1cccc(-c2cc(Cc3c(C)cc(OCC(=O)O)cc3Cl)ccc2O)c1 | 6.00 to 7.00 |
| O=C(O)COc1cc(Cl)c(Cc2ccc(O)c(-c3csc(Cl)c3)c2)c(Cl)c1 | 6.00 to 7.00 |

Can you look up the measured pEC50 of `O=C(O)COc1cc(Cl)c(Cc2ccc(O)c(-c3cc(C(F)(F)F)ccc3F)c2)c(Cl)c1` for me?
7.00 to 8.00

Can you look up the measured pEC50 of `O=C(O)COc1cc(Cl)c(Cc2ccc(O)c(-c3cccc(Cl)c3)c2)c(Cl)c1` for me?
7.00 to 8.00

Can you look up the measured pEC50 of `N#Cc1cccc(-c2cc(Cc3c(Cl)cc(OCC(=O)O)cc3Cl)ccc2O)c1` for me?
7.00 to 8.00

Can you look up the measured pEC50 of `COc1cccc(-c2cc(Cc3c(Cl)cc(OCC(=O)O)cc3Cl)ccc2O)c1` for me?
< 6.00

Can you look up the measured pEC50 of `O=C(O)COc1cc(Cl)c(Cc2ccc(O)c(-c3cc(F)cc(OC(F)F)c3)c2)c(Cl)c1` for me?
6.00 to 7.00

Can you look up the measured pEC50 of `O=C(O)COc1cc(Cl)c(Cc2ccc(O)c(Cc3cccc(F)c3)c2)c(Cl)c1` for me?
< 6.00
